System Name: Gamma-aminobutyric acid receptor subunit alpha-1 (Homo sapiens, UniProt P14867)
Sequence (P14867 whole entry): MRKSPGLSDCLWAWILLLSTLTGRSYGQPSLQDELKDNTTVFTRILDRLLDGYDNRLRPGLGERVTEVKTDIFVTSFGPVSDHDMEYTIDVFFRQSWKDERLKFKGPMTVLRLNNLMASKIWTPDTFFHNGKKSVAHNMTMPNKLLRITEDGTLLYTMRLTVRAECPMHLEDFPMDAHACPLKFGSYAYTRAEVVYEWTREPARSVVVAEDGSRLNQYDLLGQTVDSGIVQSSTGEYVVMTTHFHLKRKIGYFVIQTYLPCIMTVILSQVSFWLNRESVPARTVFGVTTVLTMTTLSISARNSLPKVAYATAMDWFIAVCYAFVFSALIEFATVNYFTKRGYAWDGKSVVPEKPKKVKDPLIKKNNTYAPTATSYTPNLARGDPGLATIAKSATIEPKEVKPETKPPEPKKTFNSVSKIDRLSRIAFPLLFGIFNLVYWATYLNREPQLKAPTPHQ
Method: Binding affinity to GABAa alpha1 (unknown origin) assessed as inhibition constant
Observation Type: Ki (nM)
Give bare numbers, in nM.

stdin: Fill in the blank: the reported Ki of "CCOC(=O)c1ncn2c1CN(C)C(=O)c1cc(N=[N+]=[N-])ccc1-2" is ____.
stdout: 7

====

Method: Lipophilicity, logD of compound at pH 7
Protocol Conditions: buffer
Observation Type: logD

Below, each entry is followed by its recorded logD result.
[18F]c1ccc(OC[C@H]2CCN2)cn1: -2.02
C[C@H](c1ccccc1)n1cncc1C(=O)OCC[18F]: 2.99
[11CH3]c1ccc(OC(=O)N2CCN3CCC2CC3)cc1: 1.89
COc1cnc(OCc2cn(-c3ccc([18F])c(C)c3)nn2)nc1: 1.55

Hey, can you go through the list below and give me logD for every item?
1. CN([11CH3])[C@]1(c2ccccc2Cl)CCCCC1=O
2. [11CH3]OC(=O)c1cncn1Cc1ccccc1

stdout:
1: 2.93; 2: 2.19

====

System Name: Gamma-aminobutyric acid receptor subunit alpha-3 (Homo sapiens)
Sequence (P34903 whole entry): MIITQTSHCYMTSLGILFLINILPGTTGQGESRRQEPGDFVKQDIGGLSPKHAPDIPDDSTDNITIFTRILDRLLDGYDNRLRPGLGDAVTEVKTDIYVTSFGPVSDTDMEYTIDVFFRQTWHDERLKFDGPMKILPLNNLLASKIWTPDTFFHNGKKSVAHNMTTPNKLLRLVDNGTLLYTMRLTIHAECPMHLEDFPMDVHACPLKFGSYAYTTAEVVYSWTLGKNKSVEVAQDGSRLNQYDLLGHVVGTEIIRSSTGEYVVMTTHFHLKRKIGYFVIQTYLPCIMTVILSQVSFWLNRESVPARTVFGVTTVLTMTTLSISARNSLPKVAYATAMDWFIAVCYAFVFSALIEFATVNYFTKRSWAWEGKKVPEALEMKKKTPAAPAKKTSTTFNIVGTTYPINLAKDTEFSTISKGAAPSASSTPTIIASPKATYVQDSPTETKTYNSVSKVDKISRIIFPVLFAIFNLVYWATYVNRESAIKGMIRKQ
Method: Binding affinity to GABAa alpha3 (unknown origin) assessed as inhibition constant
Observation Type: pKi
Numbers only, as −log10 of the molar value.

stdin: Name the recorded pKi for "CCOC(=O)c1ncn2c1CN(C)C(=O)c1cc(N=[N+]=[N-])ccc1-2" .
stdout: 8.15

====

System Name: Glutamate NMDA receptor; GRIN1/GRIN2A (Homo sapiens, UniProt Q05586+Q12879)
Sequence (Q12879 whole entry, other chains not shown): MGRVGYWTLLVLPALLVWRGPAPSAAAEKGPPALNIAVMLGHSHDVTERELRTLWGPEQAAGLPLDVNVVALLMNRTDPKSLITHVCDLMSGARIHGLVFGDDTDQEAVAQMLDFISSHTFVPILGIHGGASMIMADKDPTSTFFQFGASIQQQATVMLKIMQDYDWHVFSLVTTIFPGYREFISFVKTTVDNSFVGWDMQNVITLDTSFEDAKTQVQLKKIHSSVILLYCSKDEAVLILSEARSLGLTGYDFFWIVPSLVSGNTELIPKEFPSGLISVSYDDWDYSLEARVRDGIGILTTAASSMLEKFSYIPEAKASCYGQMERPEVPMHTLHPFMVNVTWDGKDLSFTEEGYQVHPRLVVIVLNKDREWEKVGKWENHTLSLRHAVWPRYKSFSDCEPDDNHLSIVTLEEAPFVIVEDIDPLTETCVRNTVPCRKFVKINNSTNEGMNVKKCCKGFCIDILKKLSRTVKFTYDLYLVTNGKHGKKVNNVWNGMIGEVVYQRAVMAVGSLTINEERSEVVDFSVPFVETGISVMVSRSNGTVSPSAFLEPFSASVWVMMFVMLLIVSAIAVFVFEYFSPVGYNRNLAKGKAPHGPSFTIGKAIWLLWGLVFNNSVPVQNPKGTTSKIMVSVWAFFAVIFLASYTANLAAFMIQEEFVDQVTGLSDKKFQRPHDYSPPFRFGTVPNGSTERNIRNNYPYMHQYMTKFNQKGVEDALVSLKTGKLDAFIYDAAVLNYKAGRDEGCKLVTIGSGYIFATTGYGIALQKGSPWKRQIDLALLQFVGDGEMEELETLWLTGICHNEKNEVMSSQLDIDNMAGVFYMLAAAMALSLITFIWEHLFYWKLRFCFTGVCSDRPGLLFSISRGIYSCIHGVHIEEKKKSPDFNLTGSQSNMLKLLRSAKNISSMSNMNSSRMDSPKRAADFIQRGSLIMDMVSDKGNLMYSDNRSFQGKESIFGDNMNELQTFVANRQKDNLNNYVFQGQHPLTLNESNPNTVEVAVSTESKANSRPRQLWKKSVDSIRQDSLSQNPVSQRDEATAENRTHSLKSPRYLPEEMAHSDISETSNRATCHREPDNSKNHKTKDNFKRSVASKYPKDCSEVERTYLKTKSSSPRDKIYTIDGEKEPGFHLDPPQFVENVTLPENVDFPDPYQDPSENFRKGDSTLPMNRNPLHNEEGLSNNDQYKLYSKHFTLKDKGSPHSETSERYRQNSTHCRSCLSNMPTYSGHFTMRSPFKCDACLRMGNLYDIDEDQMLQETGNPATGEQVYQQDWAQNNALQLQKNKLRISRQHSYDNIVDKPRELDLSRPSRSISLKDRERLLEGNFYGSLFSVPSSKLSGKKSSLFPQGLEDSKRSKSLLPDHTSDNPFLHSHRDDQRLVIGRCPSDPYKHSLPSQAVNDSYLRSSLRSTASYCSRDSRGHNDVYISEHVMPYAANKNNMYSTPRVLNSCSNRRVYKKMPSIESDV
Method: Binding affinity to GluN1/GluN2A receptor (unknown origin) assessed as inhibition constant
Observation Type: Ki (µM)
One number for each entry, in µM.

N[C@H](C[C@H]1CC(C(=O)O)=NN1c1ccc(CCCF)cc1)C(=O)O: 0.052

Go through the list and state Ki for each entry.
1. [11CH3]Oc1cccc(-c2c(O)c3c(I)cc(Cl)cc3[nH]c2=O)c1
2. CCCc1cc(Cl)cc2[nH]c(=O)c(-c3cccc(O[11CH3])c3)c(O)c12

stdout:
[10.3, 7.2]

====

Record type: pKi measurement. Applies to: Kappa-type opioid receptor (Homo sapiens, UniProt P41145)
Numbers only, as −log10 of the molar value.

Previously resolved entries follow.
CCN(CCF)C[C@@H]1CN(C(=O)COC)CCN1C(=O)Cc1ccc(C)c(C)c1: 9.37
N[11C](=O)c1ccc(Oc2ccc(CN3CCC[C@H]3c3cccnc3)cc2)c(Cl)c1: 9.14

Below is a list of compounds. For each, state its recorded pKi.
1. CCN(CC)C[C@@H]1CN(C(=O)COC)CCN1C(=O)Cc1ccc(C)c(C)c1
2. CCN(CC)C[C@@H]1CN(C(=O)CO[11CH3])CCN1C(=O)Cc1ccc(C)c(C)c1

stdout:
9.55
9.55
